# System Under Test: T1, human ANGPTL8 peptide (hANGPTL8 peptide, SEQ ID NO: 337) (human)
# T1 construct: also called N-terminal region ANGPTL8 peptide
# T1 peptide: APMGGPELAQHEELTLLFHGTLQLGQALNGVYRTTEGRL
# Measurement Notes: SPR, captured mAb, 500 nM peptide, 25C
Measured Metric: 500 nM hANGPTL8 peptide Bound (RU)
Form entry: value (RU) — number only.

Request: If you can, please state the reported 500 nM hANGPTL8 peptide Bound (RU) value of H4H15341P (antibody, human IgG4, V domains shown, H4H prefix: human IgG4 Fc) VH: EVQLVESGGGLVQPGGSLRLSCAASGFTFNNHEMNWVRQAPGKGLEWVSYISSSGNTVTYADFLKGRFTISRDNAKNSLFLQMNSLRDEDTAVYYCARDHLSGTSPLSYWGQGTLVTVSS VL: DIQMTQSPSSLSASVGDRVTITCQASQDINNYLNWFQQKPGKAPKLLIFDASNLETGVPSRFSGSGSGTDFTFTISSLQPEDIATYFCQQYENLPYTFGQGTKLEIK .
Result: 0

Request: For the binder shown here, H4H15335P (antibody, human IgG4, V domains shown, H4H prefix: human IgG4 Fc) VH: QVQLVESGGGVVQPGRSLRLSCAASGFTFNNYGIHWVRQAPGKGLEWVAVISYDESNKYYADSVKGRFTISRDNSKNTLYLQMNSLRAEDTAVYYCAKDIRIAARRHYYYYGMDVWGQGTTVTVSS VL: DIQMTQSPSSVSASVGDRVTITCRASQGISRWLAWYQQKPGKAPKLLIYAASSLESGVPARFSGSGSGTDFTLTISSLQPEDFATYYCQQANSFPITFGPGTKVDIK , give the reported 500 nM hANGPTL8 peptide Bound (RU).
Result: 0

Request: Given the entry H4H15343P (antibody, human IgG4, V domains shown, H4H prefix: human IgG4 Fc) VH: QVQLVESGGGVVQPGRSLRLSCAASGFTFSSYGMHWVRQAPGKGLEWVAVISYAGSNKYYADSVKGRFTISRDNSKNTLYLQMNGLRAEDTAVYYCAKDPYGDYEGVLDYWGQGTLVTVSS VL: DIQMTQSPSSLSASVGDRVTITCQASQDISNYLNWYQQKPGKAPKLLIYDASNLETGVPSRFSGSGSGTDFTFTISSLQPEDIATYYCQQYDHLPITFGQGTRLEIK , report its measured 500 nM hANGPTL8 peptide Bound (RU).
Result: 0

Request: For H4H15330P (antibody, human IgG4, V domains shown, H4H prefix: human IgG4 Fc) VH: QVQLVESGGGLVKPGGSLRLSCAASGFTFSDYYMSWIRQAPGKGLEWISHISGSGRTTHYADSMKGRFTISRDNAKNSLYLQMNSLRAEDTAVYYCVREGGFNWNYEGTFDIWGQGTMVTVSS VL: DIVMTQTPLSSPVTLGQPASISCRSSQSLLHSDQNTYLSWLHQRPGQPPRLLIYKISNRFSGVPDRFSGSGAGTDFTLKISRVEAEDVGIYYCMQGTQFPLTFGGGTKVEIK , what is its reported 500 nM hANGPTL8 peptide Bound (RU)?
Result: 0
